src = patent US20220144812A1

molecular target: EP300 (P300(1048-1664)) (Homo sapiens); construct: P300(1048-1664); assay: Biochemical assay for EP300, SAMDI; settings: EP300, SAMDI; read-out: EP300 Biochemistry IC50
Sequence (Q09472 1048-1664): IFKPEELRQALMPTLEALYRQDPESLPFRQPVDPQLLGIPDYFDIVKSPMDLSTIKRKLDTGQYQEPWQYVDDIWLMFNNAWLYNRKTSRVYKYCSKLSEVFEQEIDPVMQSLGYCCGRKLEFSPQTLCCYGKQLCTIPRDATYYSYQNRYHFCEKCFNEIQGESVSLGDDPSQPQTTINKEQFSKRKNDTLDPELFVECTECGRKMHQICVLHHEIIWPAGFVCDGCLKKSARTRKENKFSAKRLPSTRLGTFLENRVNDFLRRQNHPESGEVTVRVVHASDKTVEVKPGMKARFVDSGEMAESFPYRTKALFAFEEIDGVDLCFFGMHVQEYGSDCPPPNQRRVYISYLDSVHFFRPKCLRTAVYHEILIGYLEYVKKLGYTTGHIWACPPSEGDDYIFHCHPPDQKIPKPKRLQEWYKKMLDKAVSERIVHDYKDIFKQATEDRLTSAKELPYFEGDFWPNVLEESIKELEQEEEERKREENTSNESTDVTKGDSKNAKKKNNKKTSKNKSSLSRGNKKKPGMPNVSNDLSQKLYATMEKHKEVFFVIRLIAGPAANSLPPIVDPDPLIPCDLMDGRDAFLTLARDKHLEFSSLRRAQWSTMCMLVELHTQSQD
Result Type: IC50 (nM)
Report the figure in nM without appending any unit label.

| Compound | Uom | IC50 |
| --- | --- | --- |
| CCn1ncc(CN(C)C(=O)c2cc(-n3cc(C)cn3)nc3ccc(Cl)cc23)c1C [Compound 129] | nM | 1400 |

Reported IC50 for CCn1ncc(CN(C)C(=O)c2cc(-c3cnc(NCCNC)c(C)n3)nc3ccc(Cl)cc23)c1C [Compound 525] : what is it?
142

Form field: reported IC50 of CCn1ncc(CN(C)C(=O)c2cc(-c3ccc(NCCNC)cn3)nc3ccc(Cl)cc23)c1C [Compound 30]
12

Which value of IC50 has been reported for CCn1ncc(CN(C)C(=O)c2nc(-c3cn[nH]c3)nc3ccc(Cl)cc23)c1C [Compound 125] in the records?
3500

###

biological target: CREBBP (1084-1701) (Homo sapiens, UniProt Q92793); construct: measured in the following biochemical assay using CREBBP (1084-1701); purchased; assay: Biochemical assay for CREBBP (1084-1701), SAMDI; conditions: SAMDI, read-out: CREBBP Biochemistry IC50
Sequence (Q92793 1084-1701): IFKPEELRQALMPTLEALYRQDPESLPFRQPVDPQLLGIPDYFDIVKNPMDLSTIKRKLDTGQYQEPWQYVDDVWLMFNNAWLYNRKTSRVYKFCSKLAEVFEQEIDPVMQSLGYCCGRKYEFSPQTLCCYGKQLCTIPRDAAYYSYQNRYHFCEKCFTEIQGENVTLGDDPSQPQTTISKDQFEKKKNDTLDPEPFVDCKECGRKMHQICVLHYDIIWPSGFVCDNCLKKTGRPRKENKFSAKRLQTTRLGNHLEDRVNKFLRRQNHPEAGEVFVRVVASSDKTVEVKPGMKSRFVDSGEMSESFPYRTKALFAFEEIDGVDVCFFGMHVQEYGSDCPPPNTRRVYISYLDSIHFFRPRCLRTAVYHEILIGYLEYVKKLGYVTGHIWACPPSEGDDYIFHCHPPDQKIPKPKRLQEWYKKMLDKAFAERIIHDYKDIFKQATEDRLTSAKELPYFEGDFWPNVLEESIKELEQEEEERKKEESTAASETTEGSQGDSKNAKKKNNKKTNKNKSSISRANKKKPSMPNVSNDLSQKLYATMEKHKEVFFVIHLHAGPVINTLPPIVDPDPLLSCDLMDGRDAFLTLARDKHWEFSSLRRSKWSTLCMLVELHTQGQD
API: label(entry) gives Fulfilled if the entry's IC50 is strictly smaller than 0.1 µM; on equality or larger values it gives Not fulfilled.

Look over these answered cases.
| Compound | Label |
| --- | --- |
| CCn1ncc(CN(C)C(=O)c2cc(-c3cccc(Cl)c3)nc3ccc(NC)cc23)c1C [Compound 330] | Not fulfilled |
| CCn1ncc(CN(C)C(=O)c2cc(-c3ccc(NCC(CN(C)C)OC)c(C)n3)nc3ccc(Cl)cc23)c1C (stereo not drawn) [Compound 592] | Fulfilled |
| Cc1nc(-c2cc(C(=O)N(C)Cc3cnn(CC(F)(F)F)c3C)c3cc(Cl)ccc3n2)ccc1NCCN(C)C [Compound 597] | Fulfilled |

Now look at this one.
Hi there! Is IC50 for CCn1ncc(CN(C)C(=O)c2nc(-c3ccc(OCCNC)c(Cl)c3)nc3ccc(CS(C)(=O)=O)cc23)c1C [Compound 503] below 0.1 µM, do you know?
Not fulfilled

###

tested on: H3K18Ac in HB-CLS-2 cells; assay: H3K18AC in-cell western (ICW) assay; format: cell-based; settings: H3K18Ac in-cell western; read-out: CREBBP ICW IC50
Binarize IC50 at 1 µM; below is 1, at or above is 0.

Use the examples below as a reference point.
| Compound | Target Under Test | Label |
| --- | --- | --- |
| CCn1ncc(CN(C)C(=O)c2nc(-c3ccc(OCCN4CCCC4)cc3Cl)nc3ccc(Cl)cc23)c1C [Compound 40] | H3K18Ac in HB-CLS-2 cells | 1 |
| CCn1ncc(CN(C)C(=O)c2nc(-c3cnc4n[nH]c(N)c4c3)nc3ccc(Cl)cc23)c1C [Compound 621] | H3K18Ac in HB-CLS-2 cells | 1 |
| CCn1ncc(CN(C)C(=O)c2nc(-c3ccnc(N)c3)nc3ccc(Cl)cc23)c1C [Compound 77] | H3K18Ac in HB-CLS-2 cells | 0 |

Lab note: confirm whether the reported IC50 for this compound is below 1 µM, equality not counting. compound: CCn1ncc(CN(C)C(=O)c2nc(-c3cc(CNC)ccc3C)nc3ccc(Cl)cc23)c1C [Compound 116]
0

Is it true that IC50 reported for CCn1ncc(CN(C)C(=O)c2cc(-c3cc(CNC)cc(C)n3)nc3ccc(Cl)cc23)c1C [Compound 473] is less than 1 µM?
1

I wonder whether CCn1ncc(CN(C)C(=O)c2nc(-c3cc(C(F)(F)F)c4[nH]nc(N)c4c3)nc3ccc(Cl)cc23)c1C [Compound 618] has IC50 below 1 µM. Can you tell?
1

Strictly below 1 µM in IC50? CCn1ncc(CN(C)C(=O)c2nc(-c3ccc(OCCN(C)C(=O)OC(C)(C)C)c(Cl)c3)nc3ccc(Cl)cc23)c1C [Compound 151]
0
